Source: ChEMBL document CHEMBL4483862

Recorded pIC50 for the following compounds
System: Plasmodium berghei
ASSAY_EXPLANATION: Luciferase/luciferin-expressing antifolate-resistant parasites were used to infect a culture of HepG2 cells that were pre-incubated with compounds. Infected hepatocytes emit light due to the luciferase reaction. Assay results are presented as the percent inhibition of light emission compared to control. […]
Assay type: functional
CONDITION_SUMMARY: sporozoite, read-out: LUCIFERASE INFECTION ASSAY - IC50
pIC50: −log10 of the molar value.

>>> measured_value("COc1ccccc1-n1cnnc1SCC(=O)NC(C)c1ccc(CC(C)C)cc1 (stereo not given)")
"< 5.00"

Query string: Output measured pIC50 for this item: Cc1cc(I)ccc1N1C(=O)C=CC1=O
Result string: 5.26

Query string: Output measured pIC50 for this item: Cc1c(C(=O)NC2CC2)sc(=O)n1Cc1ccc(-c2ccccc2)cc1
Result string: 5.72

Query string: Output measured pIC50 for this item: NS(=O)(=O)c1ccc(N/N=C/c2cn(-c3ccccc3)nc2-c2cccs2)c([N+](=O)[O-])c1
Result string: < 5.00

Query string: Output measured pIC50 for this item: O=S(=O)(Oc1ccc(Cl)cc1)c1cc(S(=O)(=O)c2ccccc2)cs1
Result string: < 5.10

Query string: Output measured pIC50 for this item: Clc1ccc(-c2nnc(-c3cc(Cl)cc(Cl)c3)o2)cc1
Result string: < 5.00

Query string: Output measured pIC50 for this item: Clc1ccc2c(NCc3ccc(N4CCOCC4)nc3)ncnc2c1
Result string: < 5.00

Query string: Output measured pIC50 for this item: Cc1ccc(NC(=O)c2cc(-c3ccc4c(c3)OCCO4)nc3c2cnn3C(C)C)nc1
Result string: < 5.00

Query string: Output measured pIC50 for this item: CCn1c(=O)n(Cc2cc(Cl)c3c(c2)OCO3)c2ccccc21
Result string: < 5.00

Query string: Output measured pIC50 for this item: COc1ccc(-c2nn(-c3ccccc3)cc2/C=C/C(=O)N2CCc3ccccc32)cc1OC
Result string: < 5.00

Query string: Output measured pIC50 for this item: CNc1ccccc1C(C)(C)c1cc(-c2ccc(F)cc2)no1
Result string: 5.06

Query string: Output measured pIC50 for this item: COC(=O)c1cc([N+](=O)[O-])ccc1N1CCN(c2cc(C)nc(C(C)C)n2)CC1
Result string: < 5.00

Query string: Output measured pIC50 for this item: O=C(Nc1ccccc1)N1CCC(C(=O)N2CCN(C(=O)c3ccccc3Cl)CC2)CC1
Result string: < 5.00

Query string: Output measured pIC50 for this item: CCOC(=O)c1c(NC(=O)Cn2ncc(Cl)c(Cl)c2=O)sc2c1CCC(C)C2 (stereo not given)
Result string: < 5.00

Query string: Output measured pIC50 for this item: Cn1c(Nc2ccccc2)nc2cnc(-c3ccc(N4CCOCC4)cc3)cc21
Result string: 5.03

Query string: Output measured pIC50 for this item: CCCCCCCOc1ccc(C(=O)CCC(=O)O)cc1
Result string: < 4.95

====

System: Plasmodium berghei
ASSAY_EXPLANATION: Luciferase/luciferin-expressing antifolate-resistant parasites were used to infect a culture of HepG2 cells that were pre-incubated with compounds. Infected hepatocytes emit light due to the luciferase reaction. Assay results are presented as the percent inhibition of light emission compared to control. […]
Format: functional
CONDITION_SUMMARY: sporozoite, read-out: LUCIFERASE INFECTION ASSAY - IC50
MEASUREMENT_NAME: IC50

>>> measured_value("CCN(CC)S(=O)(=O)c1ccc(C(=O)Nc2ccc(C34CC5CC(CC(O)(C5)C3)C4)cc2)cc1")
"> 10 µM"
>>> measured_value("NS(=O)(=O)c1ccc2c(c1)CCN2Cc1ccc(Cl)cc1")
"> 2 µM"
>>> measured_value("O=C(/C=C/c1ccc([N+](=O)[O-])s1)Nc1ccc(F)cc1F")
"8.88 µM"
>>> measured_value("COc1ccc(N2CCN(c3nccnc3-c3ccccc3)CC2)cc1OC")
"0.382 µM"
>>> measured_value("NC(=O)c1ccc(-c2cc(-c3cc(F)c(F)c(F)c3)cnc2N)cc1")
"> 9.61 µM"
>>> measured_value("NC(=O)N1CC=C(c2ccc(Oc3ncnc4sccc34)cc2)CC1")
"> 2 µM"

Query string: Output measured IC50 for this item: N#C/C(=C\c1ccc(OCc2ccccc2)c(OCc2ccccc2)c1)c1nnc2n1CCCCC2
Result string: > 10 µM

Query string: Output measured IC50 for this item: CCOc1ccc(-c2nc(CSC(C)C(=O)Nc3c(Cl)cccc3Cl)cs2)cc1 (centres undefined)
Result string: > 10 µM

Query string: Output measured IC50 for this item: Cc1ccccc1S(=O)(=O)Nc1nccnc1N1CCN(S(=O)(=O)c2cccc3ccccc23)CC1
Result string: > 6.3 µM

Query string: Output measured IC50 for this item: O=C(Nc1ccc(OC(F)(F)F)cc1)N1CCc2nc(NCc3cccc(Oc4ccccc4)c3)ncc2C1
Result string: > 6.16 µM

Query string: Output measured IC50 for this item: O=C(Cn1c(=O)ccn(Cc2ccccc2)c1=O)N1CCC(n2c(=O)[nH]c3ccccc32)CC1
Result string: > 10 µM

Query string: Output measured IC50 for this item: FC(F)(F)c1cccc(NC(S)=Nc2ccc(Cl)c(Cl)c2)c1
Result string: > 9.04 µM

Query string: Output measured IC50 for this item: CCOC(=O)c1c(-c2ccccc2)oc2ccc(N(C(C)=O)S(=O)(=O)c3ccc4ccccc4c3)cc12
Result string: 6.33 µM

Query string: Output measured IC50 for this item: Cc1cc(O)cc2c1C(=O)/C(=C/c1ccc(F)cc1)O2
Result string: > 12.2 µM

Query string: Output measured IC50 for this item: Oc1c(Cl)cc(Cl)cc1C1Nc2cccc3cccc(c23)N1
Result string: > 9.96 µM

Query string: Output measured IC50 for this item: O=S(=O)(c1ccc(N=C2NN=C(c3ccc4ccccc4c3)CS2)cc1)N1CCOCC1
Result string: 4.82 µM

Query string: Output measured IC50 for this item: OCc1ccc(-c2cnc3ccc(-c4cccc(C(F)(F)F)c4)nn23)cc1
Result string: > 10 µM

Query string: Output measured IC50 for this item: CCOC(=O)c1sc(N2CCCC2)c2c1CC(C)(C)CC2=O
Result string: > 10.3 µM
